Let's look at some compounds and their measured NLD acute mice.
# ASSAY_PROCEDURE: Maximum non-lethal dose (NLD), single intravenous dose in mice
# Format: in vivo, Swiss-Webster male mice
# TEST_SETTINGS: test compounds as aspartate salts in 5% mannitol, AmB as FUNGIZONE
The figure you give is taken to be in mg/kg; do not add the unit.

CC1[C@H](C)OC(=O)C[C@H](O)C[C@H](O)CC[C@@H](O)[C@H](O)C[C@H](O)C[C@]2(O)C[C@H](O)C(C(=O)NCC(O)C(O)C(O)C(O)CO)C(C[C@@H](OC3O[C@H](C)[C@@H](O)[C@H](NC[C@@]4(O)OC[C@@H](O)[C@H](O)[C@@H]4O)[C@@H]3O)/C=C/C=C/C=C/C=C/C=C/C=C/C=C/[C@H](C)[C@H]1O)O2 (stereo partly drawn)    10

Attention now shifts to the item below.
## Input Which measured NLD acute mice value corresponds to CC1[C@H](C)OC(=O)C[C@H](O)C[C@H](O)CC[C@@H](O)[C@H](O)C[C@H](O)C[C@]2(O)C[C@H](O)C(C(=O)NCC(O)C(O)C(O)C(O)CO)C(C[C@@H](OC3O[C@H](C)[C@@H](O)[C@H](NC[C@@]4(O)OC[C@@H](O)[C@@H](O)[C@@H]4O)[C@@H]3O)/C=C/C=C/C=C/C=C/C=C/C=C/C=C/[C@H](C)[C@H]1O)O2 (stereo partly drawn) ?
## Output 10
